# Assay overview: Stability of peptides in human liver microsomes
# Assay type: in vitro ADME
# Condition label: human, microsomes, 24 h, 2 μM, pH 7.8
Where a SMILES comes first, the peptide text is derived from it. [ ]: non-standard residue; d: D form. ξ: configuration not given here. ξBip(2'-Et-4'-OMe) = CCc1cc(OC)ccc1-c1ccc(CC(N)C(=O)O)cc1; Arg(NO2) = N=C(NCCC[C@H](N)C(=O)O)N[N+](=O)[O-]; ξαMePhe(2,6-F2) = CC(N)(Cc1c(F)cccc1F)C(=O)O; ξαMePhe(2-F) = CC(N)(Cc1ccccc1F)C(=O)O; hhPhe = N[C@@H](CCCc1ccccc1)C(=O)O; hArg = N=C(N)NCCCC[C@H](N)C(=O)O; Nle = CCCC[C@H](N)C(=O)O; Ac5c = NC1(C(=O)O)CCCC1; Ac3c = NC1(C(=O)O)CC1; Aib = CC(C)(N)C(=O)O
Reported % degradation of peptides in 24 h when incubated with liver microsomes values for a set of compounds
Readout type: % degradation of peptides in 24 h when incubated with liver microsomes (%)

[
  {
    "Compound": "CCCC[C@H](NC(=O)[C@H](CC(C)C)NC(=O)[C@H](CCC(N)=O)NC(=O)[C@@H](NC(=O)[C@H](CCC(=O)O)NC(=O)C1(NC(=O)[C@@H](NC(=O)C2(N)CC2)C(C)C)CC1)[C@@H](C)CC)C(=O)N[C@@H](Cc1c[nH]cn1)C(=O)N[C@@H](CCC(N)=O)C(=O)N[C@@H](CCCCNC(=N)N)C(=O)N[C@@H](C)C(=O)N[C@@H](CCCCN)C(=O)NC(Cc1ccc(-c2ccc(OC)cc2CC)cc1)C(=O)N[C@@H](CCCc1ccccc1)C(N)=O (some centres unmarked) [Seq. ID. 610] (H-[Ac3c]V[Ac3c]EIQL[Nle]HQ[hArg]AK[ξBip(2'-Et-4'-OMe)][hhPhe]-NH2)",
    "Value measured": 78
  },
  {
    "Compound": "CCCC[C@H](NC(=O)C(C)(Cc1c(F)cccc1F)NC(=O)[C@H](CCC(N)=O)NC(=O)[C@@H](NC(=O)[C@H](CCC(=O)O)NC(=O)C(C)(C)NC(=O)[C@@H](NC(=O)C1(N)CCCC1)C(C)C)[C@@H](C)CC)C(=O)N[C@@H](Cc1c[nH]cn1)C(=O)N[C@@H](CCC(N)=O)C(=O)N[C@@H](CCCCNC(=N)N)C(=O)NC(C)(C)C(=O)N[C@@H](CCCNC(=N)N[N+](=O)[O-])C(=O)NC(C)(Cc1ccccc1F)C(N)=O (some centres unmarked) [Seq. ID. 260] (H-[Ac5c]V[Aib]EIQ[ξαMePhe(2,6-F2)][Nle]HQ[hArg][Aib][Arg(NO2)][ξαMePhe(2-F)]-NH2)",
    "Value measured": 77
  }
]
